Target: T1, arrestin2^1-393 (human)
T1 chain: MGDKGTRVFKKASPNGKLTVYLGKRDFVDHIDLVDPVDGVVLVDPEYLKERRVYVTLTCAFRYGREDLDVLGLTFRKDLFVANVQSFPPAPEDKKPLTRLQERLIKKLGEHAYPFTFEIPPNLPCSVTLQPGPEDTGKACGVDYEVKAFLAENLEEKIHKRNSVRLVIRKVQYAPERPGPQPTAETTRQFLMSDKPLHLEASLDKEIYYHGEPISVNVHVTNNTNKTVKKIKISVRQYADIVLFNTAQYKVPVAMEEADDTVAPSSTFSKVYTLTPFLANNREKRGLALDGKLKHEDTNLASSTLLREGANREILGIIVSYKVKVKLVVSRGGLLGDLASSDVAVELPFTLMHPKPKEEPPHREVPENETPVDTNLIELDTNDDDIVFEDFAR
Test: NMR titration
No end group written: not given here.
REPORTED_METRIC: pKd
Units for pKd: none; it is -log10 of a concentration expressed in mol/L.

Past entries and their recorded results:
# BINDER, pKd
records = [
    ("APERASSVYTRSTGEQEISVGL (also: five-fold phosphorylated, lacking pT343, sites not given here) [CCR5 5P1 phosphopeptide]", 3.83),
    ("APERASSVYTRSTGEQEISVGL (also: phosphopeptide (6P), sites not given here) [CCR5 6P phosphopeptide]", 4.35),
]

Now let's try a different one.
Challenge: Please report pKd for the following binder: APERASSVYTRSTGEQEISVGL (not fully specified; five-fold phosphorylated; comprising pT343; whole pattern in Figure 1C) [CCR5 5P2 phosphopeptide]
Response given: 4.27
